Molecular target: Bifunctional dihydrofolate reductase-thymidylate synthase (Plasmodium falciparum K1, UniProt P13922)
Sequence (P13922 whole entry): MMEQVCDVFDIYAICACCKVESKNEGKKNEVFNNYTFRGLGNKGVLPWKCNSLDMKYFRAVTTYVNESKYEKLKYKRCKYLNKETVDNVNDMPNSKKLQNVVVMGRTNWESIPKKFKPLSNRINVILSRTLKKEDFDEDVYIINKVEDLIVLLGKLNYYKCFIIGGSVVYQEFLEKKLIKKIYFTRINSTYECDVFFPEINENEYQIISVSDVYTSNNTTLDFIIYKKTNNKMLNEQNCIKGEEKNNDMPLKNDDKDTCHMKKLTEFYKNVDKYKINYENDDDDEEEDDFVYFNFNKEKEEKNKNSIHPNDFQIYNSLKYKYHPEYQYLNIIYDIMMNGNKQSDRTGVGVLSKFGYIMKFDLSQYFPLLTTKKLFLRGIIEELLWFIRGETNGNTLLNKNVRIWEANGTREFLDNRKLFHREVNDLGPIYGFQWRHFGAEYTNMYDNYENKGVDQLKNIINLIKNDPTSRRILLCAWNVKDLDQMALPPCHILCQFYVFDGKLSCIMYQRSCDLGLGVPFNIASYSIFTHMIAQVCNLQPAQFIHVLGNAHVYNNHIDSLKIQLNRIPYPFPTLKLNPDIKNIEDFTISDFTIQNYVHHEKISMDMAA
Assay: Inhibitory activity against double mutant dihydrofolate reductase (C59R+S108N DHFR)
OBSERVATION TYPE: log10 of Ki (log10 of the value in nM)
Recorded Ki (log10, nM)

> print(dat)
                                   compound  observation.type  measurement
1  Nc1ncc(Cc2ccc(OCCCOCCCOc3ccccc3)cc2)c(N)n1       log10 of Ki         2.03
2  COc1ccc(Cc2cnc(N)nc2N)cc1OC [DIAVERIDINE]       log10 of Ki         2.37
3           CCCCCOc1cc(Cc2cnc(N)nc2N)ccc1OC       log10 of Ki         2.13
4              CCOc1ccc(Cc2cnc(N)nc2N)cc1OC       log10 of Ki         2.27
5          CCCCCOc1ccc(Cc2cnc(N)nc2N)cc1OCC       log10 of Ki         1.67

Give me log10 of Ki for each of these compounds, listed below.
1. CCOc1cc(Cc2cnc(N)nc2N)ccc1OCCCc1ccccc1
2. CCCOc1ccc(Cc2cnc(N)nc2N)cc1

[1.03, 2.32]

* * *

I'd appreciate it if you could supply log10 Ki values for the items below.
Biological target: Bifunctional dihydrofolate reductase-thymidylate synthase (Plasmodium falciparum K1, UniProt P13922, C59R/I164L/N51I/S108N)
Assay: Inhibitory activity against quadruple mutant dihydrofolate reductase (N51I C59R S108N I164L DHFR)
Recorded Ki (log10, nM)

Use the examples below as a reference point.
> print(dat)
                       smiles.representation  measurement
 1          CCCCCOc1ccc(Cc2cnc(N)nc2N)cc1OCC         2.96
 2  CCCOc1cc(Cc2c(N)nc(N)nc2CC)ccc1OCc1cc(OC)c(OC)c(OC)c1         2.84
 3    CCOc1cc(Cc2cnc(N)nc2N)ccc1OCCCc1ccccc1         2.72
 4  Nc1ncc(Cc2ccc(OCCCOCCCOc3ccccc3)cc2)c(N)n1         3.20
 5       COc1ccc(Cc2cnc(N)nc2N)cc1OCc1ccccc1         3.05
 6                 COc1ccc(Cc2cnc(N)nc2N)cc1         4.31
 7             CCCCCOc1ccc(Cc2cnc(N)nc2N)cc1         2.96
 8         CCCCCCCOc1cc(Cc2cnc(N)nc2N)ccc1OC         2.65
 9     Nc1ncc(Cc2ccc(OCCCc3ccccc3)cc2)c(N)n1         2.90
10              CCOc1ccc(Cc2cnc(N)nc2N)cc1OC         4.07

Give me log10 Ki for each of these compounds, listed below.
1. COc1cc(Cc2cnc(N)nc2N)ccc1OCc1cc(OC)c(OC)c(OC)c1
2. CCCOc1ccc(Cc2cnc(N)nc2N)cc1

[2.09, 3.18]

* * *

Biological target: Bifunctional dihydrofolate reductase-thymidylate synthase (Plasmodium falciparum K1) (UniProt P13922)
Test: Inhibitory activity against wild-type dihydrofolate reductase (S108N DHFR), relative to trimethoprim
I'd appreciate it if you could supply Relative activity values for the items below.
Numbers only.

Use the examples below as a reference point.
> print(dat)
                      smiles.representation  measurement
1             CCCCCOc1ccc(Cc2cnc(N)nc2N)cc1          0.8
2  CCc1nc(N)nc(N)c1Cc1ccc(OCc2ccccc2)c(OC)c1          0.3
3          CCCCCOc1ccc(Cc2cnc(N)nc2N)cc1OCC          0.1

// next entry
Look at this molecule and give its reported Relative activity. COc1ccc(Cc2cnc(N)nc2N)cc1
2.3
